conditions: in isopropanol, 283.15 K

structure	solubility (mole fraction)
O=C1CCc2ccc(OCCCCN3CCN(c4cccc(Cl)c4Cl)CC3)cc2N1	9.1e-06

---

settings: in isopropanol, 293.15 K
metric: solubility (mole fraction)

structure	metric	val
O=C1CCc2ccc(OCCCCN3CCN(c4cccc(Cl)c4Cl)CC3)cc2N1	solubility (mole fraction)	1.68e-05

---

conditions: in n-propanol, 278.15 K
metric: solubility (mole fraction)

structure	val
O=C1CCc2ccc(OCCCCN3CCN(c4cccc(Cl)c4Cl)CC3)cc2N1	1.46e-05

---

conditions: in isopropanol, 308.15 K

structure	solubility (mole fraction)
O=C1CCc2ccc(OCCCCN3CCN(c4cccc(Cl)c4Cl)CC3)cc2N1	3.89e-05

Origin of the recorded values: BigSolDB 2.1
